The reported numbers originate from patent US11478474B2.

Assay: Study on in vivo pharmacokinetics in mice
Conditions: mouse; male ICR mice, oral (intragastric) administration, 10 mg/kg, plasma
Method: Example 6 Study on In Vivo Pharmacokinetics in Mice […] The plasma samples were pre-treated and then analyzed by liquid chromatography-tandem mass spectrometry (LC-MS/MS), the instrument model was API5500. […] The concentrations of the compound in the samples were determined as follows. […] The sample concentrations were calculated by measuring the peak area ratio of the compound of the test sample to the internal standard according to the standard curve.
metric-name: half-life (h)

(A) C[C@H]1CN(C2COC2)CCN1c1ccc(Nc2cc(-c3ccnc(-n4ccn5c6c(cc5c4=O)CC(C)(C)C6)c3CO)cn(C)c2=O)nc1
(B) C[C@H]1CN(C2COC2)CCN1c1ccc(Nc2cc(-c3ccnc(N4CCn5c(cc6c5CC(C)(C)C6)C4=O)c3CO)cn(C)c2=O)nc1 [GDC-0853, fenebrutinib, reference compound]
stdin: Which value of half-life is greater, the one for A or the one for B ? # answer = label of selected item
stdout: A
(A: 2.7 h, B: 1.5 h)

----------
Target: BTK recombinant protein (Homo sapiens (Human), UniProt Q06187)
Sequence (Q06187 whole entry): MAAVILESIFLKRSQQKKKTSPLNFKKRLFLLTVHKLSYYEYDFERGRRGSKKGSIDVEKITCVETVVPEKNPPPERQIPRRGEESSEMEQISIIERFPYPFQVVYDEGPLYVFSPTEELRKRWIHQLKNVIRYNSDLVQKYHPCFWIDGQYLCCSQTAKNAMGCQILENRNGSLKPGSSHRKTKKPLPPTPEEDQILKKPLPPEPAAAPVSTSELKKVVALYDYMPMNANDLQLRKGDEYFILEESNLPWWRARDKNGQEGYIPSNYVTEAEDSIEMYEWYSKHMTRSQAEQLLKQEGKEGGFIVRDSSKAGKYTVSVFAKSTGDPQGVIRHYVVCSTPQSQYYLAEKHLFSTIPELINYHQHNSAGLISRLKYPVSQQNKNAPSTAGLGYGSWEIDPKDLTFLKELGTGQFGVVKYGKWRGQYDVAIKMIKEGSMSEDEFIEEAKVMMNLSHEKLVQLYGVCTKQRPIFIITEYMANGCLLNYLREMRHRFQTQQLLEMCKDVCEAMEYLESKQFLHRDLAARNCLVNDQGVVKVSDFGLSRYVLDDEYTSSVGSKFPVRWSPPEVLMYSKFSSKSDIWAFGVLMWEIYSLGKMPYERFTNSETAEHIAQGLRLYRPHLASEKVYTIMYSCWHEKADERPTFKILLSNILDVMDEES
Experiment: Determination of biochemical BTK (Z'-LYTE kinase assay)
From the text: Example 2 Determination of Biochemical BTK 1. Reagents and Materials BTK recombinant protein: Invitrogen, Cat #PV3363; Z′-LYTE® kinase test kit-tyrosine 1 peptide: Invitrogen, Cat #PV3190; Z′-LYTE® biochemical assay employs a fluorescence resonance energy transfer (FRET)—based, coupled-enzyme format and is based on the differential sensitivity of phosphorylated and non-phosphorylated peptides to proteolytic cleavage. […]
pIC50: −log10 of the molar value.
metric-name: pIC50

Here is how some compounds turned out for pIC50.
stdin: # pIC50 lookup, item C[C@H]1CN(C2COC2)CCN1c1ccc(Nc2cc(-c3ccnc(-n4ccn5c6c(cc5c4=O)CC(F)(F)CC6)c3CO)cn(C)c2=O)nc1 [Compound 58]
stdout: 8.10

stdin: # pIC50 lookup, item C[C@@H]1c2cc(Nc3cc(-c4ccnc(-n5ccn6c7c(cc6c5=O)CC(C)(C)C7)c4CO)cn(C)c3=O)nn2CCN1C1COC1 [Compound 137]
stdout: 8.22

stdin: # pIC50 lookup, item C[C@@H]1CN(c2ccc(Nc3cc(-c4ccnc(-n5ccn6c(c(F)c7ccccc76)c5=O)c4CO)cn(C)c3=O)nc2)[C@@H](C)CN1C1COC1 [Compound 59]
stdout: 8.30

(a) Cn1nc(Nc2cc(-c3ccnc(-n4ccn5c6c(cc5c4=O)CC(C)(C)C6)c3CO)cn(C)c2=O)cc1C(=O)N1CCOCC1 [Compound 99]
(b) C[C@H]1CN(C2COC2)CCN1c1ccc(Nc2cc(-c3ccnc(-n4cnn5c6c(cc5c4=O)CCCC6)c3CO)cn(C)c2=O)nc1 [Compound 184]
stdin: Which value of pIC50 is greater, the one for a or the one for b ? # answer = label of selected item
stdout: a

(1) CN1CCN(C(=O)c2ccc(Nc3cc(-c4ccnc(-n5ccn6c7c(cc6c5=O)CC(C)(C)C7)c4CO)cn(C)c3=O)nc2)CC1 [Compound 48]
(2) C[C@@H]1CN(c2ccc(Nc3cc(-c4ccnc(-n5ccn6c7c(cc6c5=O)CC(C)(C)C7)c4CO)nn(C)c3=O)nc2)[C@@H](C)CN1C1COC1 [Compound 5]
stdin: Which value of pIC50 is greater, the one for 1 or the one for 2 ? # answer = label of selected item
stdout: 1
(1: 8.40, 2: 8.05)

(1) Cn1cc(-c2ccnc(-n3ccn4c5c(cc4c3=O)CC(C)(C)C5)c2CO)cc(Nc2cc3n(n2)CCN(C2COC2)C3)c1=O [Compound 124]
(2) COCCN1CCn2nc(Nc3cc(-c4ccnc(-n5ccn6c7c(cc6c5=O)CC(C)(C)C7)c4CO)cn(C)c3=O)cc2C1 [Compound 70]
stdin: Could you tell me which of 1 and 2 has the lower pIC50 reading? # answer = label of selected item
stdout: 2

(I) COCCN1CCn2nc(Nc3cc(-c4ccnc(-n5ncn6c7c(cc6c5=O)CCCC7)c4CO)cn(C)c3=O)cc2C1 [Compound 163]
(II) C[C@H]1c2cc(Nc3cc(-c4ccnc(-n5ccn6c7c(cc6c5=O)CC(C)(C)C7)c4CO)cn(C)c3=O)nn2CCN1C1COC1 [Compound 136]
stdin: Could you tell me which of I and II has the lower pIC50 reading? # answer = label of selected item
stdout: I
(I: 8.10, II: 8.40)
